From: patent US9242970B2

target: human orexin-2 receptor (Homo sapiens (Human)); experiment: In vitro assay: intracellular calcium measurements (FLIPR), antagonistic activity; type: cell-based; details: CHO cells, 3 nM orexin-A, compound incubation 120 min; marked values are geometric means of n = 2-6; read-out: IC50 OX2
Sequence (O43614 whole entry): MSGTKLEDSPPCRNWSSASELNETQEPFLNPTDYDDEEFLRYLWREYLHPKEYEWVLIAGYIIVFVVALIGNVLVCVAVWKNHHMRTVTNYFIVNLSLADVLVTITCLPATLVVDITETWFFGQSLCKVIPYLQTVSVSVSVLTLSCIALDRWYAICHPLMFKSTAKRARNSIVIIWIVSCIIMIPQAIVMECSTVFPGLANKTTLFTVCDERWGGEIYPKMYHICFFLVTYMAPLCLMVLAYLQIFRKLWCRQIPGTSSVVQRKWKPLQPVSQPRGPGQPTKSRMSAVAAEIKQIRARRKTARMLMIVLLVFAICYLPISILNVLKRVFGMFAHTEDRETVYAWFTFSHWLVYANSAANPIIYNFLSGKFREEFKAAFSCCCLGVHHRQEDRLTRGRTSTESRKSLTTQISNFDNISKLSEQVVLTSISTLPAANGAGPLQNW
The entries below are paired with their reported pIC50.
A value of pIC50 is the negative decimal logarithm of a concentration given in moles per litre.

>  <compound>
COc1cccc(OC)c1C1CCCC(=O)N1Cc1ccc2nccnc2c1 (stereo not drawn)

>  <system.under.test>
human orexin-2 receptor (Homo sapiens (Human))

>  <pIC50>
6.06

$$$$
>  <compound>
COc1cccc(OC)c1C1CCCCC(=O)N1Cc1cccc(-c2ccccc2)n1 (stereo not drawn)

>  <system.under.test>
human orexin-2 receptor (Homo sapiens (Human))

>  <pIC50>
7.59

$$$$

Now look at this one.
stdin: Query: pIC50; subject: CCOc1cccc(F)c1C1CC(C)C(=O)N1Cc1ccc(OC(F)(F)F)cc1 (stereo not drawn)
stdout: 7.52
